Molecular target: T1, human MSLN-R3-3 polypeptide (human)
T1 construct: Part of region R3 of human MSLN; also called hMSLN-R3-3; human MSLN-R3-3 protein
Test: ELISA, coated antigen, antibody 100 nM
property.name: OD450
Respond numerically, and do not add a unit to the figure.

q: Fill in the blank: the reported OD450 of S009-F5-9.16 chimeric antibody (antibody, human IgG1, kappa, V domains shown, Human-murine chimeric antibody, human IgG1/kappa constant regions) VH: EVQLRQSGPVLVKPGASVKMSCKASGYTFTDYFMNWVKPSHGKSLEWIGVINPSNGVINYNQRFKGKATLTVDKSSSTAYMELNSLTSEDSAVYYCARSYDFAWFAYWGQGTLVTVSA VL: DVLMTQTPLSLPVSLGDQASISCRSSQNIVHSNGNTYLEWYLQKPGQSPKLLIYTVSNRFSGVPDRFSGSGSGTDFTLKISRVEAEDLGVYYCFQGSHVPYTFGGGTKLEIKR is ____.
a: 1.99
